# Test system: 922993-354-T-J3-PDC complex spheroids, viability, % test/control
# method: Anticancer human tumor 922993-354-T-J3-PDC patient-derived endometrial carcinoma cell line growth inhibition [CLK]
# measurement-context: second compound 3.16 µM; first compound 0.0316 µM; stronger effect = lower value
outcome-measure: viability, T/C

Query: Return reported viability, T/C; argument: C#Cc1c(F)ccc2cc(O)cc(-c3ncc4c(N5CC6CCC(C5)N6)nc(OCC56CCCN5CC(F)C6)nc4c3F)c12 (stereo unspecified) + CN1CCN(c2cc(C(=O)Nc3cc4cc(-c5cnn(C)c5)ccc4cn3)ccn2)CC1
Result: 0.14%

Query: Quick one: viability, T/C for O=c1[nH]cc(F)c(=O)[nH]1 + CN1CCN(c2cc(C(=O)Nc3cc4cc(-c5cnn(C)c5)ccc4cn3)ccn2)CC1 ?
Result: 0.09%

Query: Given Nc1ccccc1NC(=O)c1ccc(CNC(=O)OCc2cccnc2)cc1 + CNC(=O)c1ccc(Nc2nc(OC3CCCC3)c3c(-c4ccc5nc(C)oc5c4)c[nH]c3n2)c(OC)c1 , state its recorded viability, T/C.
Result: 29%

Query: For the compound Nc1ccn(C2OC(CO)C(O)C2(F)F)c(=O)n1 (stereo unspecified) + CNC(=O)c1ccc(Nc2nc(OC3CCCC3)c3c(-c4ccc5nc(C)oc5c4)c[nH]c3n2)c(OC)c1 , what viability, T/C is on record?
Result: 13.6%

Query: # get_value(readout='viability, T/C', item= CCCS(=O)(=O)Nc1ccc(F)c(C(=O)c2c[nH]c3ncc(-c4ccc(Cl)cc4)cc23)c1F + CN1CCN(c2cc(C(=O)Nc3cc4cc(-c5cnn(C)c5)ccc4cn3)ccn2)CC1 )
Result: 0.09%

Query: Data request, read-out viability, T/C, for COC1C=CCC(C)C(C)S(=O)(=O)NC(=O)c2ccc3c(c2)N(CC2CCC21)CC1(CCCc2cc(Cl)ccc21)CO3 (stereo unspecified) + CN1CCN(c2cc(C(=O)Nc3cc4cc(-c5cnn(C)c5)ccc4cn3)ccn2)CC1
Result: 0.11%

----------
# Tested on: 922993-354-T-J3-PDC complex spheroids, viability, % test/control
# method: Anticancer human tumor 922993-354-T-J3-PDC cell line growth inhibition [CLK];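 also: spheroids exposed to the agents for 7 days before readout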
# measurement-context: second compound 0.0316 µM; first compound 0.003 µM; stronger effect = lower value
Listed here are molecules together with their documented viability, T/C.
Answer in %, number only, no unit symbol.

{"molecule": "C=CC(=O)Nc1cc(Nc2nccc(-c3cn(C)c4ccccc34)n2)c(OC)cc1N(C)CCN(C)C + CN1CCN(c2cc(C(=O)Nc3cc4cc(-c5cnn(C)c5)ccc4cn3)ccn2)CC1", "u": "%", "viability, T/C": 98.4}
{"molecule": "C=CC(=O)Nc1cc(Nc2nccc(-c3cn(C)c4ccccc34)n2)c(OC)cc1N(C)CCN(C)C + CNC(=O)c1ccc(Nc2nc(OC3CCCC3)c3c(-c4ccc5nc(C)oc5c4)c[nH]c3n2)c(OC)c1", "u": "%", "viability, T/C": 105}
{"molecule": "CC(C)CC(NC(=O)C(Cc1ccccc1)NC(=O)c1cnccn1)B(O)O (centres undefined) + CN1CCN(c2cc(C(=O)Nc3cc4cc(-c5cnn(C)c5)ccc4cn3)ccn2)CC1", "u": "%", "viability, T/C": 85.5}

Now examine the next entry.
Query: Recorded viability, T/C of CC(C)CC(NC(=O)C(Cc1ccccc1)NC(=O)c1cnccn1)B(O)O (centres undefined) + CNC(=O)c1ccc(Nc2nc(OC3CCCC3)c3c(-c4ccc5nc(C)oc5c4)c[nH]c3n2)c(OC)c1 , please.
Result: 91.4

----------
# Test system: 922993-354-T-J3-PDC complex spheroids, viability, % test/control
# method: Anticancer human tumor 922993-354-T-J3-PDC cell line growth inhibition [CLK]; active = viability on the fitted dose curve at most 10% of control; inactive = the rest;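 also: spheroids exposed to the agents for 7 days before readout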
# measurement-context: second compound 3.16 µM; first compound 0.00316 µM
Answer with one of the outcomes given here: true (1) (active), false (0) (inactive)

Solved cases (2 shown):
{"molecule": "CCN1CCN(Cc2ccc(Nc3ncc(F)c(-c4cc(F)c5nc(C)n(C(C)C)c5c4)n3)nc2)CC1 + CN1CCN(c2cc(C(=O)Nc3cc4cc(-c5cnn(C)c5)ccc4cn3)ccn2)CC1", "class-name": "true (1)"}
{"molecule": "Cn1ncnc1[C@H]1c2n[nH]c(=O)c3cc(F)cc(c23)N[C@@H]1c1ccc(F)cc1 + CNC(=O)c1ccc(Nc2nc(OC3CCCC3)c3c(-c4ccc5nc(C)oc5c4)c[nH]c3n2)c(OC)c1", "class-name": "false (0)"}

Could you now look at the following molecule, please?
Query: Status in this test for COc1c(OCCCN2CCOCC2)ccc2c3n(c(=NC(=O)c4cnc(N)nc4)nc12)CCN3 + CNC(=O)c1ccc(Nc2nc(OC3CCCC3)c3c(-c4ccc5nc(C)oc5c4)c[nH]c3n2)c(OC)c1 ?
Result: false (0)

----------
# Test system: 922993-354-T-J3-PDC complex spheroids, viability, % test/control
# method: Anticancer human tumor 922993-354-T-J3-PDC cell line growth inhibition [CLK]; active = viability on the fitted dose curve at most 10% of control; inactive = the rest;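 also: spheroids exposed to the agents for 7 days before readout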
# measurement-context: second compound 1 µM; first compound 3.16 µM
Bench note: report the call from active, inactive

Query: Recorded call for O=C(c1cc(Cc2n[nH]c(=O)c3ccccc23)ccc1F)N1CCN(C(=O)C2CC2)CC1 + CN1CCN(c2cc(C(=O)Nc3cc4cc(-c5cnn(C)c5)ccc4cn3)ccn2)CC1 ?
Result: active

Query: // param item: O=c1[nH]cc(F)c(=O)[nH]1 + CN1CCN(c2cc(C(=O)Nc3cc4cc(-c5cnn(C)c5)ccc4cn3)ccn2)CC1 ; yields the recorded call
Result: active

Query: Please share the test call associated with CC1COCCN1c1cc(C2(S(C)(=N)=O)CC2)nc(-c2ccnc3[nH]ccc23)n1 (stereo not drawn) + CNC(=O)c1ccc(Nc2nc(OC3CCCC3)c3c(-c4ccc5nc(C)oc5c4)c[nH]c3n2)c(OC)c1 .
Result: inactive

----------
Reported viability, T/C by item:
# System: 922993-354-T-J3-PDC complex spheroids, viability, % test/control
# method: Anticancer human tumor 922993-354-T-J3-PDC cell line growth inhibition [CLK];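 also: spheroids exposed to the agents for 7 days before readout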
# measurement-context: second compound 0.1 µM; first compound 1 µM; stronger effect = lower value

Query: Tell me the measured viability, T/C of COC1C=CCC(C)C(C)S(=O)(=O)NC(=O)c2ccc3c(c2)N(CC2CCC21)CC1(CCCc2cc(Cl)ccc21)CO3 (stereo not given) + CN1CCN(c2cc(C(=O)Nc3cc4cc(-c5cnn(C)c5)ccc4cn3)ccn2)CC1 , please.
Result: 90.1%

Query: Form field: reported viability, T/C of CC1COCCN1c1cc(C2(S(C)(=N)=O)CC2)nc(-c2ccnc3[nH]ccc23)n1 (stereo not given) + CN1CCN(c2cc(C(=O)Nc3cc4cc(-c5cnn(C)c5)ccc4cn3)ccn2)CC1
Result: 94.6%

Query: Quick check: viability, T/C of CC1COCCN1c1cc(C2(S(C)(=N)=O)CC2)nc(-c2ccnc3[nH]ccc23)n1 (stereo not given) + CNC(=O)c1ccc(Nc2nc(OC3CCCC3)c3c(-c4ccc5nc(C)oc5c4)c[nH]c3n2)c(OC)c1 ?
Result: 116%

Query: For the compound shown here, CCc1c2c(nc3ccc(O)cc13)-c1cc3c(c(=O)n1C2)COC(=O)[C@]3(O)CC + CNC(=O)c1ccc(Nc2nc(OC3CCCC3)c3c(-c4ccc5nc(C)oc5c4)c[nH]c3n2)c(OC)c1 , give the reported viability, T/C.
Result: 29.9%

Query: // viability, T/C lookup, key: CC(=O)O[C@H]1C(=O)[C@@]2(C)[C@H]([C@H](OC(=O)c3ccccc3)[C@]3(O)C[C@H](OC(=O)[C@H](O)[C@@H](NC(=O)c4ccccc4)c4ccccc4)C(C)=C1C3(C)C)[C@]1(OC(C)=O)CO[C@@H]1C[C@@H]2O + CN1CCN(c2cc(C(=O)Nc3cc4cc(-c5cnn(C)c5)ccc4cn3)ccn2)CC1
Result: 63.1%

----------
Recorded viability, T/C values for a group of compounds are listed next.
# Test system: 922993-354-T-J3-PDC complex spheroids, viability, % test/control
# method: Anticancer human tumor 922993-354-T-J3-PDC cell line growth inhibition [CLK];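 also: spheroids exposed to the agents for 7 days before readout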
# measurement-context: second compound 0.1 µM; first compound 0.03 µM; stronger effect = lower value
Give the number; % is assumed, so skip it.

{"compound": "C=CC(=O)Nc1cc(Nc2nccc(-c3cn(C)c4ccccc34)n2)c(OC)cc1N(C)CCN(C)C + CN1CCN(c2cc(C(=O)Nc3cc4cc(-c5cnn(C)c5)ccc4cn3)ccn2)CC1", "tested-target": "922993-354-T-J3-PDC complex spheroids, viability, % test/control", "viability, T/C [%]": 69}
{"compound": "NC(=O)C(=Cn1cnc(-c2cc(C(F)(F)F)cc(C(F)(F)F)c2)n1)c1cncnc1 + CNC(=O)c1ccc(Nc2nc(OC3CCCC3)c3c(-c4ccc5nc(C)oc5c4)c[nH]c3n2)c(OC)c1", "tested-target": "922993-354-T-J3-PDC complex spheroids, viability, % test/control", "viability, T/C [%]": 120}
{"compound": "NC(=O)C(=Cn1cnc(-c2cc(C(F)(F)F)cc(C(F)(F)F)c2)n1)c1cncnc1 + CN1CCN(c2cc(C(=O)Nc3cc4cc(-c5cnn(C)c5)ccc4cn3)ccn2)CC1", "tested-target": "922993-354-T-J3-PDC complex spheroids, viability, % test/control", "viability, T/C [%]": 118}
{"compound": "CC(C)CC(NC(=O)C(Cc1ccccc1)NC(=O)c1cnccn1)B(O)O (stereo unspecified) + CNC(=O)c1ccc(Nc2nc(OC3CCCC3)c3c(-c4ccc5nc(C)oc5c4)c[nH]c3n2)c(OC)c1", "tested-target": "922993-354-T-J3-PDC complex spheroids, viability, % test/control", "viability, T/C [%]": 10.3}
{"compound": "C=CC(=O)Nc1cc(Nc2nccc(-c3cn(C)c4ccccc34)n2)c(OC)cc1N(C)CCN(C)C + CNC(=O)c1ccc(Nc2nc(OC3CCCC3)c3c(-c4ccc5nc(C)oc5c4)c[nH]c3n2)c(OC)c1", "tested-target": "922993-354-T-J3-PDC complex spheroids, viability, % test/control", "viability, T/C [%]": 98.3}

# input for lookup
Query: Reported viability, T/C, compound CC(C)CC(NC(=O)C(Cc1ccccc1)NC(=O)c1cnccn1)B(O)O (stereo unspecified) + CN1CCN(c2cc(C(=O)Nc3cc4cc(-c5cnn(C)c5)ccc4cn3)ccn2)CC1 : ____
Result: 8.34

Source listed as PubChem BioAssay AID2060606.
